Quick list: pIC50 per entry.
Molecular target: RIPK1 (Homo sapiens)
Assay: RIPK1 ADP-Glo biochemical kinase assay
Settings: read-out: RIPK1 ADP-Glo Kinase (IC50)
Procedure: In this example, compounds of the disclosure were evaluated using a biochemical assay using the ADP-Glo™ technology. ADP-Glo™ (Promega, Madison, WI, USA) reagents were thawed at ambient temperature. […] The plate was quickly centrifuged and the reaction was incubated at 30° C. for 30 minutes. […] The relative light unit (RLU) of kinase reaction was determined by luminescent (Luminescence 0.1 s) using a Wallac Victor2 Luminometer (PerkinElmer, Waltham, MA, USA).
# reply with the number alone; pIC50 is -log10 of concentration in mol/L

Sample records with pIC50:
* CN1C(=O)[C@@H](NC(=O)n2cc(Cc3cccnc3F)cn2)COc2ccc(C#CC3(O)CCC3)cc21 | 6.19
* Cc1nc(Cc2ccnc(C(=O)N[C@H]3COc4ccc(C#CC5CCOCC5)cc4N(C)C3=O)c2)cs1 | 7.70
* Cc1ncccc1Oc1ccnc(C(=O)N[C@H]2COc3ccc(C#CC4(O)COC4)cc3N(C)C2=O)c1 | 7.98

Q. Find the recorded pIC50 belonging to CN1C(=O)[C@@H](NC(=O)n2cc(Cc3cccc(F)n3)cn2)CCc2ccc(C#CC(C)(C)O)cc21 and report it.
A. 7.71

====

pIC50 values, listed per item
target: RIPK1 (Homo sapiens, UniProt Q13546); experiment: RIPK1 ADP-Glo biochemical kinase assay; conditions: read-out: RIPK1 ADP-Glo Kinase (IC50)
Note on units: pIC50 is unitless, being -log10 of a concentration expressed in mol/L.

* CN1C(=O)[C@@H](NC(=O)n2cc(Cc3cccnc3F)cn2)COc2ccc(C#CC(C)(C)O)cc21 [I-43] | 7.75
* CN1C(=O)[C@@H](NC(=O)n2cc(Cc3cccc(F)n3)cn2)CCc2ccc(C#CC3(O)COC3)cc21 [I-113] | 7.93

Q. Can you look up the measured pIC50 of CN1C(=O)[C@@H](NC(=O)c2cc(Cc3cccc(F)n3)ccn2)COc2ccc(C#CC3(O)COC3)cc21 [I-7] for me?
A. 7.73

Q. Which value of pIC50 has been reported for Cc1cccc(Oc2ccnc(C(=O)N[C@H]3COc4ccc(C#CC5(O)COC5)cc4N(C)C3=O)c2)n1 [I-131] in the records?
A. 7.61

Q. Field request: pIC50 | item: CN1C(=O)[C@@H](NC(=O)n2cc(Cc3cccc(F)n3)cn2)CCc2ccc(Br)cc21 [I-35]
A. 7.71

Q. I'd like to know its pIC50. The molecule in question is CN1C(=O)[C@@H](NC(=O)c2cc(Oc3cccnc3F)ccn2)COc2ccc(C#CC3(O)COC3)cc21 [I-56]
A. 7.98

Q. Endpoint output: pIC50 of CN1C(=O)[C@@H](NC(=O)c2cc(Cc3cccc(F)n3)ccn2)COc2ccc(C#CC3COC3)cc21 [I-84] . Value?
A. 7.71

====

biological target: RIPK1 (Homo sapiens); assay: RIPK1 ADP-Glo biochemical kinase assay; conditions: read-out: RIPK1 ADP-Glo Kinase (IC50)
outcome_measure: pIC50
pIC50 field: float, defined as -log10 of concentration (mol/L).

* Cc1ccc(Oc2ccnc(C(=O)N[C@H]3COc4ccc(C#CC(C)(C)O)cc4N(C)C3=O)c2)c(C)n1 [I-78] | 7.44
* CN1C(=O)[C@@H](NC(=O)n2cc(Cc3cccc(F)n3)cn2)COc2ccc(C#CC(O)C(F)(F)F)cc21 (mixture of isomers) [I-105] | 7.77
* CN1C(=O)[C@@H](NC(=O)n2cc(Cc3cccnc3F)cn2)COc2ccc(Br)cc21 [I-42] | 7.74
* CCc1nc(Cc2ccnc(C(=O)N[C@H]3COc4ccc(C#CC(C)(C)O)cc4N(C)C3=O)c2)cs1 [I-98] | 7.62
* CN1C(=O)[C@@H](NC(=O)n2cc(Cc3cccnn3)cn2)COc2ccc(C#CC(C)(C)O)cc21 [I-17] | 6.95
* CN1C(=O)[C@@H](NC(=O)n2cc(Cc3cccc(F)n3)cn2)CCc2c(F)cc(C#CC(C)(C)O)cc21 [I-121] | 7.58
* Cc1cccc(Cc2cnn(C(=O)N[C@H]3COc4ccc(C#CC(C)(C)O)cc4N(C)C3=O)c2)n1 [I-2] | 7.37
* CN1C(=O)[C@@H](NC(=O)c2cc(Oc3ccccn3)ccn2)COc2ccc(C#CC(C)(C)O)cc21 [I-128] | 5.67

Q. Sample Cc1ccc(Oc2ccnc(C(=O)N[C@H]3COc4ccc(C#CC5(O)COC5)cc4N(C)C3=O)c2)c(C)n1 [I-79] — what was its pIC50?
A. 7.17

Q. Name the recorded pIC50 for CN1C(=O)[C@@H](NC(=O)c2cc(Oc3ccc(C(F)(F)F)nc3)ccn2)COc2ccc(C#CC3(O)COC3)cc21 [I-81] .
A. 6.41

====

Readings of IC50 for the listed compounds
Target: RIPK1 (Homo sapiens, UniProt Q13546)
Sequence (Q13546 1-671): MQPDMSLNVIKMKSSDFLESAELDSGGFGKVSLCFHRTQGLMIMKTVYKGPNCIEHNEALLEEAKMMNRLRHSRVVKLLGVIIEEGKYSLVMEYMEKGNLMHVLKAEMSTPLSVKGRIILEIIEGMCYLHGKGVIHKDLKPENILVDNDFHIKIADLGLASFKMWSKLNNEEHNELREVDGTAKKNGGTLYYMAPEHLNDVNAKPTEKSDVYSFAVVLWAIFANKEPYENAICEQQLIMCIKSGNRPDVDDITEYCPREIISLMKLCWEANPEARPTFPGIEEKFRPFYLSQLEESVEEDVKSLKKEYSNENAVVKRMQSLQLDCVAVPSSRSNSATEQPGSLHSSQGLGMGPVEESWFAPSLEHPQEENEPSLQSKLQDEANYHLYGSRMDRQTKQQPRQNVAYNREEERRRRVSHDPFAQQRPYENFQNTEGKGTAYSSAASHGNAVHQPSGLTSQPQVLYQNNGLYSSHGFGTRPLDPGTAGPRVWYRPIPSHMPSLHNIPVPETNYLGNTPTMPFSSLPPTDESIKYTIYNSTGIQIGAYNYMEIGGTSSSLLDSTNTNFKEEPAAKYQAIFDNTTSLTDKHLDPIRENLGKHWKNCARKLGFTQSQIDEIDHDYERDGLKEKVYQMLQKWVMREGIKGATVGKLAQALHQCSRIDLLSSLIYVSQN
Test: RIPK1 ADP-Glo biochemical kinase assay
Conditions: read-out: RIPK1 ADP-Glo Kinase (IC50)
Write the value in nM as a bare number.

Completed entries (count: 3):
- CN1C(=O)[C@@H](NC(=O)n2cc(Cc3cccc(F)n3)cn2)COc2ccc(C#CC(C)(C)CO)cc21 [I-37]: 16.2
- Cc1nc(Cc2ccnc(C(=O)N[C@H]3COc4ccc(C#CC5(O)COC5)cc4N(C)C3=O)c2)cs1 [I-66]: 15.4
- CN1C(=O)[C@@H](NC(=O)n2cc(Cc3cccnc3F)cn2)COc2ccc(C#CC3(O)CCOCC3)cc21 [I-44]: 62.9

Q. Looking for the measured IC50 of Cc1nc(Cc2ccnc(C(=O)N[C@H]3COc4ccc(C#CC5COC5)cc4N(C)C3=O)c2)cs1 [I-85] , can you help?
A. 20.6

Q. Would you mind telling me what IC50 value was observed for CN1C(=O)[C@@H](NC(=O)c2cc(Oc3cnn(C)c3)ccn2)COc2ccc(C#CC3(O)CCC3)cc21 [I-133] ?
A. 14

Q. Item CN1C(=O)[C@@H](NC(=O)c2cc(Cc3ccccn3)ccn2)COc2ccc(C#CC3(O)COC3)cc21 [I-64] has what recorded IC50?
A. 30.7

====

Recorded pIC50 values for a group of molecules are listed next.
target: RIPK1 (Homo sapiens); assay: RIPK1 ADP-Glo biochemical kinase assay; conditions: read-out: RIPK1 ADP-Glo Kinase (IC50)
Value format note: pIC50 is -log10 of concentration (mol/L); just state the number.

Example entries and their recorded answers appear below.
• Cc1cccc(Cc2cnn(C(=O)N[C@H]3COc4ccc(C#CC5COC5)cc4N(C)C3=O)c2)n1 = 7.58
• CN1C(=O)[C@@H](NC(=O)c2cc(Cc3csc(C(F)(F)F)n3)ccn2)COc2ccc(C#CC3(O)COC3)cc21 = 7.52
• CN1C(=O)[C@@H](NC(=O)n2cc(Cc3cccc(F)n3)cn2)COc2ccc(C#CC(C)(C)O)cc21 = 7.69
• CN1C(=O)[C@@H](NC(=O)c2cc(Cn3cccn3)ccn2)COc2ccc(C#CC(C)(C)O)cc21 = 7.06
• Cc1ccc(Cc2cnn(C(=O)N[C@H]3COc4ccc(Br)cc4N(C)C3=O)c2)cn1 = 7.59

Q. Hi! What's the reported pIC50 for CN1C(=O)[C@@H](NC(=O)c2cc(Cc3cccc(C#N)n3)ccn2)COc2ccc(C#CC(C)(C)O)cc21 on RIPK1 (Homo sapiens)?
A. 7.52

Q. What value of pIC50 on RIPK1 (Homo sapiens) does Cc1cccc(Cc2cnn(C(=O)N[C@H]3CCc4ccc(Br)cc4N(C)C3=O)c2)n1 have?
A. 7.42

Q. pIC50 of CN1C(=O)[C@@H](NC(=O)c2cc(Oc3ccc(F)nc3)ccn2)COc2ccc(C#CC(C)(C)O)cc21 on RIPK1 (Homo sapiens)?
A. 7.39

Q. Kindly state the measured pIC50 obtained for CN1C(=O)[C@@H](NC(=O)c2cc(Oc3cccnc3C#N)ccn2)COc2ccc(C#CC3(O)COC3)cc21 with RIPK1 (Homo sapiens).
A. 7.68

Q. Missing value: pIC50, RIPK1 (Homo sapiens), entry CN1C(=O)[C@@H](NC(=O)n2cc(Cc3cccc(F)n3)cn2)COc2ccc(C#CC(C)(C)C)cc21 . Fill in?
A. 7.65

Q. Param readout = pIC50; param system = RIPK1 (Homo sapiens); param query = CN1C(=O)[C@@H](NC(=O)c2cc(Oc3cccnc3F)ccn2)COc2ccc(C#CC(C)(C)O)cc21 ; response: value
A. 7.77

Q. pIC50 of Cc1ccc(Cc2ccnc(C(=O)N[C@H]3COc4ccc(C#CC(C)(C)O)cc4N(C)C3=O)c2)cn1 on RIPK1 (Homo sapiens)?
A. 7.48

Q. What pIC50 appears in the records for this molecule with RIPK1 (Homo sapiens)? CN1C(=O)[C@@H](NC(=O)n2cc(Cc3cccnc3F)cn2)COc2ccc(C#CC3CCOCC3)cc21
A. 7.35

Q. # get_value(readout= pIC50, system= RIPK1 (Homo sapiens)) for CCc1nc(Cc2ccnc(C(=O)N[C@H]3COc4ccc(C#CC5(O)COC5)cc4N(C)C3=O)c2)cs1
A. 7.57

This collection of values is drawn from patent US12156880B2.
